Cited source for all entries: patent US8834929B2

assay: Aqueous solubility of the drug; type: physicochemical
Listed below: solubility values for each entry.

O=C(N[C@@H](Cc1ccccc1)[C@H](O)C(=O)N1C[C@@H](O)[C@@H](O)C1)c1cc2cc(Cl)ccc2[nH]1
~80 µg/mL
C=CCNC(=O)[C@H]1N(C(=O)[C@@H](O)[C@H](Cc2ccccc2)NC(=O)c2cccc(O)c2C)CSC1(C)C
~1600 µg/mL

# ---- query compound ----
Problem: Read off the recorded solubility for CCOC(=O)N1c2ccc(C(F)(F)F)cc2[C@@H](N(Cc2cc(C(F)(F)F)cc(C(F)(F)F)c2)C(=O)OC)C[C@H]1CC [Drug 2, torcetrapib, reference compound]
Solution: < 0.1 µg/mL
